What pIC50 was measured for each of the following?
Measured on: UniProt P81908
Numbers only, as −log10 of the molar value.

The cases that follow already have their pIC50 on record.
# pIC50 (molecule: CCN(CCCNc1c2c(nc3ccccc13)CCCC2)CCC(=O)Nc1nc(-c2ccc(Cl)cc2)cs1 ) is 8.38

// CCN(CCCCCCNc1c2c(nc3ccccc13)CCCC2)CC(=O)Nc1nc(-c2ccc(OC)cc2)cs1 : pIC50 value = 6.23

// batch mode: one pIC50 value per listed entry
1. O=C(CCCC(=O)Nc1nc(-c2ccccc2)cs1)NCCCNc1c2c(nc3ccccc13)CCCC2
2. O=C(CCC(=O)Nc1nc(-c2ccccc2)cs1)NCCCCCCNc1c2c(nc3ccccc13)CCCC2
3. CCN(CCCNc1c2c(nc3ccccc13)CCCC2)CC(=O)Nc1nc(-c2ccccc2)cs1

Return:
1: 5.75; 2: 9.45; 3: 10.35

Items follow; give pIC50 for each.
1. O=C(CCC(=O)Nc1nc(-c2ccccc2)cs1)NCCCCNc1c2c(nc3ccccc13)CCCC2
2. CCN(CCCCNc1c2c(nc3ccccc13)CCCC2)CC(=O)Nc1nc(-c2ccc(Cl)cc2)cs1
3. CCN(CCCNc1c2c(nc3ccccc13)CCCC2)CC(=O)Nc1nc(-c2ccc(OC)cc2)cs1
4. CCN(CCCCNc1c2c(nc3ccccc13)CCCC2)CC(=O)Nc1nc(-c2ccc(OC)cc2)cs1
5. O=C(CCC(=O)Nc1nc(-c2ccc(Cl)cc2)cs1)NCCCCNc1c2c(nc3ccccc13)CCCC2

Return:
[9.22, 7.11, 6.56, 7.69, 7.78]

Batch lookup, pIC50 per entry.
1. O=C(CCC(=O)Nc1nc2c(s1)CCCC2)NCCCCNc1c2c(nc3ccccc13)CCCC2
2. CCN(CCCCNc1c2c(nc3ccccc13)CCCC2)CCC(=O)Nc1nc(-c2ccccc2)cs1
3. CCN(CCCNc1c2c(nc3ccccc13)CCCC2)CCC(=O)Nc1nc(-c2ccc(OC)cc2)cs1
4. CCN(CCCCNc1c2c(nc3ccccc13)CCCC2)CCC(=O)Nc1nc(-c2ccc(Cl)cc2)cs1
5. CCN(CCCNc1c2c(nc3ccccc13)CCCC2)CCC(=O)Nc1nc(-c2ccccc2)cs1
6. CCN(CCCCNc1c2c(nc3ccccc13)CCCC2)CC(=O)Nc1nc(-c2ccccc2)cs1

Return:
1. 6.44
2. 7.74
3. 9.32
4. 7.34
5. 8.22
6. 7.83

----------
Can you tell me log10 of IC50 for the items I'm about to list?
Measured on: UniProt:O42275
Sequence (O42275 whole entry): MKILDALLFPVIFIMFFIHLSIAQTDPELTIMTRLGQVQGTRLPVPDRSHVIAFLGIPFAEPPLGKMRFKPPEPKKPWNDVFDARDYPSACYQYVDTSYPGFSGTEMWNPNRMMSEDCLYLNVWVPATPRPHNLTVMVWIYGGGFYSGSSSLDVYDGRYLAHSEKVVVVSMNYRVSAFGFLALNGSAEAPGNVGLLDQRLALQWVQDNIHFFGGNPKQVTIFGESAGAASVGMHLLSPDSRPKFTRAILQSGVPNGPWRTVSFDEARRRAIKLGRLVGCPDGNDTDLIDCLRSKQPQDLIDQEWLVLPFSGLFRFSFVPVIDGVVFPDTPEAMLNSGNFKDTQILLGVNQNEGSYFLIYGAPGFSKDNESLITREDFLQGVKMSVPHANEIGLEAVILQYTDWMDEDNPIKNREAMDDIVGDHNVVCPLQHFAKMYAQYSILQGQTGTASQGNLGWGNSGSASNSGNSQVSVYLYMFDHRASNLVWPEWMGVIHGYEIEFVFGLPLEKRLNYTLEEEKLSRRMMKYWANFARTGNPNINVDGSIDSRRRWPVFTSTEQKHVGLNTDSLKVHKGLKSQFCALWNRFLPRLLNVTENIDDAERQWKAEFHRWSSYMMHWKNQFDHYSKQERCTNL
On a log10 scale: recorded IC50, unit nM.

Example results:
I looked up CCN(CCCCNc1c2c(nc3ccccc13)CCCC2)CC(=O)Nc1nc(-c2ccc(Cl)cc2)cs1 and its log10 of IC50 for UniProt:O42275 was 3.21

Test item O=C(CCC(=O)Nc1nc(-c2ccccc2)cs1)NCCCCCCNc1c2c(nc3ccccc13)CCCC2 ; UniProt:O42275; reported log10 of IC50 was 1.86

# CCN(CCCCCCNc1c2c(nc3ccccc13)CCCC2)CC(=O)Nc1nc(-c2ccccc2)cs1 with UniProt:O42275: log10 of IC50 is 1.91

Record for CCN(CCCNc1c2c(nc3ccccc13)CCCC2)CCC(=O)Nc1nc(-c2ccc(Cl)cc2)cs1 under target or system UniProt:O42275: log10 of IC50 reported as 3.08

Fill in: UniProt:O42275 log10 of IC50 for CCN(CCCCCCNc1c2c(nc3ccccc13)CCCC2)CC(=O)Nc1nc(-c2ccc(OC)cc2)cs1 = 2.20

Report log10 of IC50 for each item below.
1. CCN(CCCCNc1c2c(nc3ccccc13)CCCC2)CCC(=O)Nc1nc(-c2ccccc2)cs1
2. CCN(CCCNc1c2c(nc3ccccc13)CCCC2)CCC(=O)Nc1nc(-c2ccc(OC)cc2)cs1
3. O=C(CCC(=O)Nc1nc2c(s1)CCCC2)NCCCCNc1c2c(nc3ccccc13)CCCC2
4. CCN(CCCCNc1c2c(nc3ccccc13)CCCC2)CCC(=O)Nc1nc(-c2ccc(Cl)cc2)cs1

Return:
[2.04, 1.99, 3.10, 2.08]

----------
Measured on: Cholinesterase (Equus caballus, UniProt P81908)
Sequence (P81908 whole entry): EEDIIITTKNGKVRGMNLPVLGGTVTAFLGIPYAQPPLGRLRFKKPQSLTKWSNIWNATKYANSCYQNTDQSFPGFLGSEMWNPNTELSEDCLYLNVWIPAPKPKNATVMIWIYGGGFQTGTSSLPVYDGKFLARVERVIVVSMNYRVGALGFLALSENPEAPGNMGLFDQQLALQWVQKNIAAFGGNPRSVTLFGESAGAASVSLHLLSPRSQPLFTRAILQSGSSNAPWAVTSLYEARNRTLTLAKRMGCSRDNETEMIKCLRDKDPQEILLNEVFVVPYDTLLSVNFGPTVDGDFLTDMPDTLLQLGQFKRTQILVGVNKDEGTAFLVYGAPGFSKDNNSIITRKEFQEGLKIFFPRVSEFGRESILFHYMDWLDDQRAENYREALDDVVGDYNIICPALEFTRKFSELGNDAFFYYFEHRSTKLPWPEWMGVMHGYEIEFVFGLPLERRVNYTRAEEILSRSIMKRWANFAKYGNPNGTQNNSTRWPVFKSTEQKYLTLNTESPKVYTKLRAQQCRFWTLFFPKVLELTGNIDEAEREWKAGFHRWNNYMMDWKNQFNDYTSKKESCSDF
Quantity measured: IC50
Don't forget the unit after the number, please.

Reference set, count: 2
# IC50 measured on Cholinesterase (Equus caballus, UniProt P81908) for item CCN(CCCCNc1c2c(nc3ccccc13)CCCC2)CCC(=O)Nc1nc(-c2ccc(OC)cc2)cs1 = 6.61 nM

Reading of IC50 for CCN(CCCCCCNc1c2c(nc3ccccc13)CCCC2)CC(=O)Nc1nc(-c2ccccc2)cs1 with Cholinesterase (Equus caballus, UniProt P81908): 468 nM

Attention now shifts to the item below.
Here O=C(CCCC(=O)Nc1nc(-c2ccccc2)cs1)NCCCCNc1c2c(nc3ccccc13)CCCC2 was tested on Cholinesterase (Equus caballus, UniProt P81908), and its IC50 came to 0.55 nM
